Numbers sourced from patent US6727076B2.

Tested on: E. coli 287 (ATCC #11775)
Format: cell-based
measured-metric: carbon source utilization result

# example entries with known answers
- compound: "OC[C@@H](O)[C@@H](O)[C@H](O)[C@H](O)CO"
  carbon source utilization result: "positive"
- compound: "Cc1cn([C@H]2C[C@H](O)[C@@H](CO)O2)c(=O)[nH]c1=O"
  carbon source utilization result: "positive"
- compound: "OC[C@@H](O)[C@H](O)[C@@H](O)CO"
  carbon source utilization result: "negative"
- compound: "OC[C@H]1O[C@H](O)[C@H](O)[C@@H](O)[C@@H]1O"
  carbon source utilization result: "positive"
- compound: "O=C[C@H](O)[C@@H](O)[C@@H](O)CO"
  carbon source utilization result: "positive"
- compound: "N[C@@H](C(=O)O)[C@@H](O)[C@H](O)[C@H](O)CO"
  carbon source utilization result: "negative"
- compound: "CC(O)C(C)O (stereo not drawn)"
  carbon source utilization result: "positive/negative"
- compound: "N[C@@H](Cc1ccccc1)C(=O)O"
  carbon source utilization result: "positive/negative"

Query: Can you look up the measured carbon source utilization result of "O=C(O)[C@]1(O)C[C@@H](O)[C@@H](O)[C@H](O)C1" for me?
Result: negative

Query: Entry "O=C1CC[C@@H](C(=O)O)N1" please
Result: positive/negative

Query: Next: "O=C(O)CCC(=O)O"
Result: positive

Query: Again, but for "O=C1O[C@@H]([C@H](O)CO)[C@H](O)[C@H]1O"
Result: positive
